From: patent US20210095028A1

Molecular target: T1, human TIGIT over-expressed on cells (human, UniProt Q495A1 22-244)
T1 sequence: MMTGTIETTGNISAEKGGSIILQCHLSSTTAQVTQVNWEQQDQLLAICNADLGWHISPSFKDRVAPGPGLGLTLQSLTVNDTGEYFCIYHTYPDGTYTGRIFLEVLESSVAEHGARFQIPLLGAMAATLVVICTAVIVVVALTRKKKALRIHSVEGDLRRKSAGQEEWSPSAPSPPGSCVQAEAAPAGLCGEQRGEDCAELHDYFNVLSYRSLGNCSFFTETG
Test: cell-based or functional assay
Catalogue of IL-2 secretion in T cell activation, Top (best-fit) readings, one per entry.
Would you mind answering with just the numeric figure?

{"columns": ["Binder", "Meas value"],
 "data": [
  ["100C4E7D11 chimeric (antibody, V domains shown, also called 100C4 Chimeric) VH: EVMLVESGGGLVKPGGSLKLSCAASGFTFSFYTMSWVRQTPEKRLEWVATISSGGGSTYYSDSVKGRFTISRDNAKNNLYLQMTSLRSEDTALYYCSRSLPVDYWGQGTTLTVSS VL: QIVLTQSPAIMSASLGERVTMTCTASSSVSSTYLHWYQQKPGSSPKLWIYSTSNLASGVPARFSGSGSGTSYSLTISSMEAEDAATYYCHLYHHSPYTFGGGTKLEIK", 419]
]}

Please turn your attention to the following entry.
Param item = 64G1E9B4VH1_VL1.M1 (antibody, human IgG1, V domains shown, Humanized antibody, variable domains fused with the constant region of human IgG1; also called 64G1VH1_VL1.M1) VH: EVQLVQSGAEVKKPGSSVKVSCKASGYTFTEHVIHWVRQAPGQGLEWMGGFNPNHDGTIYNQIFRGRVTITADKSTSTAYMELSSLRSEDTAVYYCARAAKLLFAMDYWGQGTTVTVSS VL: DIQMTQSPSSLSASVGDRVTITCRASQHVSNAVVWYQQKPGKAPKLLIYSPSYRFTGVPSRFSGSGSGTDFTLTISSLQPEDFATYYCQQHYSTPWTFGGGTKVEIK ; retrieve measured IL-2 secretion in T cell activation, Top (best-fit). 508
